# test-context: in n-propanol, 313.15 K
experimental-endpoint: solubility (mole fraction)
Numbers only.

Problem: Return solubility (mole fraction) (reported value) for this compound: `Cc1cc(C)[nH]n1`
Solution: 0.226

* * *

# test-context: in acetonitrile, 288.15 K
experimental-endpoint: solubility (mole fraction)
Give bare numbers.

Problem: Return solubility (mole fraction) (reported value) for this molecule: `Cc1cc(C)[nH]n1`
Solution: 0.0359

* * *

# test-context: in toluene, 300.65 K
experimental-endpoint: solubility (mole fraction)
Numbers only.

Problem: Return solubility (mole fraction) (reported value) for this molecule: `Cc1cc(C)[nH]n1`
Solution: 0.0863

* * *

# test-context: in n-propanol, 285.65 K
experimental-endpoint: solubility (mole fraction)
Numbers only.

Problem: Return solubility (mole fraction) (reported value) for this compound: `Cc1cc(C)[nH]n1`
Solution: 0.13

* * *

# test-context: in n-butanol, 313.15 K
experimental-endpoint: solubility (mole fraction)
Answers are plain numbers.

Problem: Return solubility (mole fraction) (reported value) for this compound: `Cc1cc(C)[nH]n1`
Solution: 0.265

* * *

# test-context: in ethyl acetate, 293.15 K
experimental-endpoint: solubility (mole fraction)
One number for each entry.

Problem: Return solubility (mole fraction) (reported value) for this compound: `Cc1cc(C)[nH]n1`
Solution: 0.0881

* * *

# test-context: in methanol, 295.65 K
experimental-endpoint: solubility (mole fraction)

Problem: Return solubility (mole fraction) (reported value) for this compound: `Cc1cc(C)[nH]n1`
Solution: 0.137

* * *

# test-context: in n-butanol, 308.15 K
experimental-endpoint: solubility (mole fraction)

Problem: Return solubility (mole fraction) (reported value) for this molecule: `Cc1cc(C)[nH]n1`
Solution: 0.237

* * *

# test-context: in acetone, 300.65 K
experimental-endpoint: solubility (mole fraction)
Numbers only.

Problem: Return solubility (mole fraction) (reported value) for this molecule: `Cc1cc(C)[nH]n1`
Solution: 0.129

* * *

# test-context: in isopropanol, 293.15 K
experimental-endpoint: solubility (mole fraction)

Problem: Return solubility (mole fraction) (reported value) for this molecule: `Cc1cc(C)[nH]n1`
Solution: 0.142

* * *

# test-context: in methanol, 290.65 K
experimental-endpoint: solubility (mole fraction)
One number for each entry.

Problem: Return solubility (mole fraction) (reported value) for this molecule: `Cc1cc(C)[nH]n1`
Solution: 0.123

* * *

# test-context: in methanol, 285.65 K
experimental-endpoint: solubility (mole fraction)
One number for each entry.

Problem: Return solubility (mole fraction) (reported value) for this compound: `Cc1cc(C)[nH]n1`
Solution: 0.112

* * *

# test-context: in toluene, 313.15 K
experimental-endpoint: solubility (mole fraction)
One number for each entry.

Problem: Return solubility (mole fraction) (reported value) for this compound: `Cc1cc(C)[nH]n1`
Solution: 0.171

* * *

# test-context: in ethanol, 295.65 K
experimental-endpoint: solubility (mole fraction)
Answers are plain numbers.

Problem: Return solubility (mole fraction) (reported value) for this compound: `Cc1cc(C)[nH]n1`
Solution: 0.155

* * *

# test-context: in n-propanol, 310.65 K
experimental-endpoint: solubility (mole fraction)
Answers are plain numbers.

Problem: Return solubility (mole fraction) (reported value) for this compound: `Cc1cc(C)[nH]n1`
Solution: 0.213

* * *

# test-context: in ethanol, 305.65 K
experimental-endpoint: solubility (mole fraction)
Answers are plain numbers.

Problem: Return solubility (mole fraction) (reported value) for this molecule: `Cc1cc(C)[nH]n1`
Solution: 0.187
